test: Example 11: plasma pharmacokinetics (toxicokinetics) of tozadenant in mice after twice daily oral administration; assay type: in vivo, Crl:CD1(ICR) mice; settings: male, Crl:CD1(ICR), mouse, plasma, po, 100 mg/kg/day, Group 1, Male, 100 mg/kg/day (50 mg/kg/dose), oral, dosing at 0, 8 hr; read-out: Tmax
recorded metric: Tmax (h)
Dear colleague, please return just the value in h, with no unit written.

Enquiry: Entry COc1ccc(N2CCOCC2)c2sc(NC(=O)N3CCC(C)(O)CC3)nc12 [SYN-115] needs its Tmax filled in; supply it.
Return: 9

====

Assay: Example 11: plasma pharmacokinetics (toxicokinetics) of tozadenant in mice after twice daily oral administration
Assay type: in vivo, Crl:CD1(ICR) mice
Conditions: female, Crl:CD1(ICR), mouse, plasma, po, 2000 mg/kg/day, Group 5, Female, 2000 mg/kg/day (1000 mg/kg/dose), oral, dosing at 0, 12 hr; read-out: AUC0-24
Description: The plasma pharmacokinetics and exposure levels of tozadendant have been documented in mice after oral administration, the same route of administration as tozadenant was dosed in the oncology efficacy studies. […] Centrifugation was carried out at approximately 4-8° C. within one hour of collection. […] Samples were analyzed at Covance. Tozadenant was quantitated using protein precipitation followed by liquid chromatography mass spectrometry technique for quantification. […]
recorded metric: AUC(0-t) (ng·h/mL)
Give the number; ng·h/mL is assumed, so skip it.

Enquiry: Give AUC(0-t) for the following compound: COc1ccc(N2CCOCC2)c2sc(NC(=O)N3CCC(C)(O)CC3)nc12 [SYN-115]
Return: 62700

====

assay: Example 11: plasma pharmacokinetics (toxicokinetics) of tozadenant in mice after twice daily oral administration; format: in vivo, Crl:CD1(ICR) mice; conditions: male, Crl:CD1(ICR), mouse, plasma, po, 300 mg/kg/day, Group 2, Male, 300 mg/kg/day (150 mg/kg/dose), oral, dosing at 0, 8 hr; read-out: AUC0-24
recorded metric: AUC(0-t)
Note: a bare number is incomplete; add the unit.

Enquiry: Check the records and state AUC(0-t) for COc1ccc(N2CCOCC2)c2sc(NC(=O)N3CCC(C)(O)CC3)nc12 [SYN-115]
Return: 9900 ng·h/mL

====

experiment: Example 11: plasma pharmacokinetics (toxicokinetics) of tozadenant in mice after twice daily oral administration; assay type: in vivo, Crl:CD1(ICR) mice; conditions: male, Crl:CD1(ICR), mouse, plasma, po, 2000 mg/kg/day, 0, 8 hours dosing; all groups except females at 2000 mg/kg/day; read-out: Tmax (post dose, following the second dose)
recorded metric: Tmax

Enquiry: Provide measured Tmax value, entry: COc1ccc(N2CCOCC2)c2sc(NC(=O)N3CCC(C)(O)CC3)nc12 [SYN-115]
Return: 0.8 to 2.2 h

====

test: Example 11: plasma pharmacokinetics (toxicokinetics) of tozadenant in mice after twice daily oral administration; format: in vivo, Crl:CD1(ICR) mice; conditions: female, Crl:CD1(ICR), mouse, plasma, po, 2000 mg/kg/day, Group 5, Female, 2000 mg/kg/day (1000 mg/kg/dose), oral, dosing at 0, 12 hr; read-out: Cmax
recorded metric: Cmax (ng/mL)
Report the value in ng/mL with no unit label.

Enquiry: Return Cmax (reported value) for this molecule: COc1ccc(N2CCOCC2)c2sc(NC(=O)N3CCC(C)(O)CC3)nc12 [SYN-115]
Return: 8240

====

experiment: Example 11: plasma pharmacokinetics (toxicokinetics) of tozadenant in mice after twice daily oral administration; format: in vivo, Crl:CD1(ICR) mice; conditions: male, Crl:CD1(ICR), mouse, plasma, po, 2000 mg/kg/day, Group 4, Male, 2000 mg/kg/day (1000 mg/kg/dose), oral, dosing at 0, 8 hr; read-out: AUC0-8
recorded metric: AUC(0-t) (ng·h/mL)
Your answer is read as ng·h/mL, so omit the unit and give the number.

Enquiry: Let me know recorded AUC(0-t) for COc1ccc(N2CCOCC2)c2sc(NC(=O)N3CCC(C)(O)CC3)nc12 [SYN-115] , thanks.
Return: 20500

====

test: Example 11: plasma pharmacokinetics (toxicokinetics) of tozadenant in mice after twice daily oral administration; assay type: in vivo, Crl:CD1(ICR) mice; settings: female, Crl:CD1(ICR), mouse, plasma, po, 2000 mg/kg/day, Group 4, Female, 2000 mg/kg/day (1000 mg/kg/dose), oral, dosing at 0, 8 hr; read-out: Tmax
recorded metric: Tmax (h)
Only the number, expressed in h, is required.

Enquiry: Consider the compound COc1ccc(N2CCOCC2)c2sc(NC(=O)N3CCC(C)(O)CC3)nc12 [SYN-115] . State its measured Tmax.
Return: 14

====

Assay: Example 11: plasma pharmacokinetics (toxicokinetics) of tozadenant in mice after twice daily oral administration
Format: in vivo, Crl:CD1(ICR) mice
Conditions: male, Crl:CD1(ICR), mouse, plasma, po, 1000 mg/kg/day, Group 3, Male, 1000 mg/kg/day (500 mg/kg/dose), oral, dosing at 0, 8 hr; read-out: AUC0-8
Procedure: The plasma pharmacokinetics and exposure levels of tozadendant have been documented in mice after oral administration, the same route of administration as tozadenant was dosed in the oncology efficacy studies. […] Centrifugation was carried out at approximately 4-8° C. within one hour of collection. […] Samples were analyzed at Covance. Tozadenant was quantitated using protein precipitation followed by liquid chromatography mass spectrometry technique for quantification. […]
recorded metric: AUC(0-t) (ng·h/mL)
Response body: numeric value in ng·h/mL, unit text excluded.

Enquiry: Report measured AUC(0-t); entry is COc1ccc(N2CCOCC2)c2sc(NC(=O)N3CCC(C)(O)CC3)nc12 [SYN-115]
Return: 13800

====

assay: Example 11: plasma pharmacokinetics (toxicokinetics) of tozadenant in mice after twice daily oral administration; assay type: in vivo, Crl:CD1(ICR) mice; details: male, Crl:CD1(ICR), mouse, plasma, po, 2000 mg/kg/day, Group 5, Male, 2000 mg/kg/day (1000 mg/kg/dose), oral, dosing at 0, 12 hr; read-out: Tmax
recorded metric: Tmax (h)
The reply should be a number in h, with the unit left off.

Enquiry: Kindly indicate its recorded Tmax. Item: COc1ccc(N2CCOCC2)c2sc(NC(=O)N3CCC(C)(O)CC3)nc12 [SYN-115]
Return: 1.1

====

assay: Example 11: plasma pharmacokinetics (toxicokinetics) of tozadenant in mice after twice daily oral administration; format: in vivo, Crl:CD1(ICR) mice; conditions: female, Crl:CD1(ICR), mouse, plasma, po, 2000 mg/kg/day, Group 4, Female, 2000 mg/kg/day (1000 mg/kg/dose), oral, dosing at 0, 8 hr; read-out: Cmax
recorded metric: Cmax (ng/mL)
Use ng/mL as the unit, but write only the number.

Enquiry: Annotate the compound COc1ccc(N2CCOCC2)c2sc(NC(=O)N3CCC(C)(O)CC3)nc12 [SYN-115] with its measured Cmax.
Return: 12100

====

Experiment: Example 11: plasma pharmacokinetics (toxicokinetics) of tozadenant in mice after twice daily oral administration
Format: in vivo, Crl:CD1(ICR) mice
Settings: male, Crl:CD1(ICR), mouse, plasma, po, 1000 mg/kg/day, Group 3, Male, 1000 mg/kg/day (500 mg/kg/dose), oral, dosing at 0, 8 hr; read-out: Cmax
Protocol: The plasma pharmacokinetics and exposure levels of tozadendant have been documented in mice after oral administration, the same route of administration as tozadenant was dosed in the oncology efficacy studies. […] Centrifugation was carried out at approximately 4-8° C. within one hour of collection. […] Samples were analyzed at Covance. Tozadenant was quantitated using protein precipitation followed by liquid chromatography mass spectrometry technique for quantification. […]
recorded metric: Cmax (ng/mL)
Return type: number; implicit unit ng/mL.

Enquiry: Provide only the value of recorded Cmax for COc1ccc(N2CCOCC2)c2sc(NC(=O)N3CCC(C)(O)CC3)nc12 [SYN-115]
Return: 3610

====

experiment: Example 11: plasma pharmacokinetics (toxicokinetics) of tozadenant in mice after twice daily oral administration; format: in vivo, Crl:CD1(ICR) mice; conditions: male, Crl:CD1(ICR), mouse, plasma, po, 100 mg/kg/day, Group 1, Male, 100 mg/kg/day (50 mg/kg/dose), oral, dosing at 0, 8 hr; read-out: AUC8-24
recorded metric: AUC (ng·h/mL)
Your answer should be a plain number; it is taken to be in ng·h/mL.

Enquiry: Indicate the recorded AUC value for this molecule: COc1ccc(N2CCOCC2)c2sc(NC(=O)N3CCC(C)(O)CC3)nc12 [SYN-115]
Return: 1570

====

test: Example 11: plasma pharmacokinetics (toxicokinetics) of tozadenant in mice after twice daily oral administration; type: in vivo, Crl:CD1(ICR) mice; conditions: male, Crl:CD1(ICR), mouse, plasma, po, 2000 mg/kg/day, Group 5, Male, 2000 mg/kg/day (1000 mg/kg/dose), oral, dosing at 0, 12 hr; read-out: Cmax
recorded metric: Cmax (ng/mL)
Enter your answer as a number in ng/mL; do not include the unit.

Enquiry: Provide one value: measured Cmax of COc1ccc(N2CCOCC2)c2sc(NC(=O)N3CCC(C)(O)CC3)nc12 [SYN-115]
Return: 6440
